What inhibition at 10 µM was measured for each of the following?
biological target: p38delta kinase (h) (Homo sapiens (Human)); assay: Kinase selectivity panel: p38delta kinase (h); assay type: biochemical; details: 10 μM in duplicate, read-out: % inhibition of control values
Sequence (O15264 whole entry): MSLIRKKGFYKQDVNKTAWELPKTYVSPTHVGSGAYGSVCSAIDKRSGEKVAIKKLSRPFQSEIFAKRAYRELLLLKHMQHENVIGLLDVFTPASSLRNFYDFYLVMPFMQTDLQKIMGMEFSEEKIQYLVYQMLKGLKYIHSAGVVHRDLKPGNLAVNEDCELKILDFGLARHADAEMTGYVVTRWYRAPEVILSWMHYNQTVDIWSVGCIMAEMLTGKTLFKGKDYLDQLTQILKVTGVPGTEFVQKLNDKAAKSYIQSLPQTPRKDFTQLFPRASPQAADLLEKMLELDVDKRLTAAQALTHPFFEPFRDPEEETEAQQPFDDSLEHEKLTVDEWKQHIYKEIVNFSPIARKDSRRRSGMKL
Please respond with the number in % and leave the unit unwritten.

Could you tell me which inhibition at 10 µM is on file for COc1ccc2[nH]nc(C(=O)NCC3CCN(CC(=O)O)CC3)c2c1 [Compound 1] ?
0

What about this molecule? COCCN1CCC(CNC(=O)c2n[nH]c3ccc(OC)cc23)CC1 [Compound 2]
0

What about this molecule? COCCN1CCC(CNC(=O)c2n[nH]c3ccc(-c4cccc(F)c4F)cc23)CC1 [Compound 8]
18

What about this molecule? COc1ccc2[nH]nc(C(=O)NCC3CCN(CCC(=O)O)CC3)c2c1 [Compound 3]
0

---

What inhibition at 10 µM was measured for each of the following?
molecular target: CHK1 (h) (Homo sapiens (Human)); assay: Kinase selectivity panel: CHK1 (h); format: biochemical; settings: 10 μM in duplicate, read-out: % inhibition of control values
Sequence (O14757 whole entry): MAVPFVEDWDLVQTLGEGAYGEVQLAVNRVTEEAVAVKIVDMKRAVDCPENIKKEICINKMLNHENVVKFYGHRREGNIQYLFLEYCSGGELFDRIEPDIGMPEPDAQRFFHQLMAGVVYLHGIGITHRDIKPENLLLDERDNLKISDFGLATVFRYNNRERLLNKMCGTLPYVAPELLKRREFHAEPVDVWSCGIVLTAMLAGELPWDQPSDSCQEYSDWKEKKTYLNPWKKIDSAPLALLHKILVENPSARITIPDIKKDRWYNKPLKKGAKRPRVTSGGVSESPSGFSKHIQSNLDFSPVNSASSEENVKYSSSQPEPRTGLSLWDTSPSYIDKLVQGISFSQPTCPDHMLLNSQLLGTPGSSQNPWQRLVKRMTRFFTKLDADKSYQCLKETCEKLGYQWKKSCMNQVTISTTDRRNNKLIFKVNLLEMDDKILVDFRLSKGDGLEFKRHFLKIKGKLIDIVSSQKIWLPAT
Please respond with the number in % and leave the unit unwritten.

Could you tell me which inhibition at 10 µM is on file for "COCCN1CCC(CNC(=O)c2n[nH]c3ccc(OC)cc23)CC1" ?
8

What about this compound? "COCCN1CCC(CNC(=O)c2n[nH]c3ccc(-c4cccc(F)c4F)cc23)CC1"
0

What about this compound? "COc1ccc2[nH]nc(C(=O)NCC3CCN(CCC(=O)O)CC3)c2c1"
0

What about this compound? "COc1ccc2[nH]nc(C(=O)NCC3CCN(CC(=O)O)CC3)c2c1"
5

---

target: UniProt P17252; test: Kinase selectivity panel: PKCalpha (h); format: biochemical; conditions: 10 μM in duplicate, read-out: % inhibition of control values
What inhibition at 10 µM was measured for each of the following?
Please respond with the number in % and leave the unit unwritten.

Could you tell me which inhibition at 10 µM is on file for COCCN1CCC(CNC(=O)c2n[nH]c3ccc(-c4cccc(F)c4F)cc23)CC1 [Compound 8] ?
19

What about this compound? COCCN1CCC(CNC(=O)c2n[nH]c3ccc(OC)cc23)CC1 [Compound 2]
0

What about this compound? COc1ccc2[nH]nc(C(=O)NCC3CCN(CC(=O)O)CC3)c2c1 [Compound 1]
0

What about this compound? COc1ccc2[nH]nc(C(=O)NCC3CCN(CCC(=O)O)CC3)c2c1 [Compound 3]
5

---

molecular target: smMLCK (h) (MYLK) (Homo sapiens (Human)); experiment: Kinase selectivity panel: smMLCK (h) (MYLK); type: biochemical; details: 10 μM in duplicate, read-out: % inhibition of control values
Sequence (Q15746 whole entry): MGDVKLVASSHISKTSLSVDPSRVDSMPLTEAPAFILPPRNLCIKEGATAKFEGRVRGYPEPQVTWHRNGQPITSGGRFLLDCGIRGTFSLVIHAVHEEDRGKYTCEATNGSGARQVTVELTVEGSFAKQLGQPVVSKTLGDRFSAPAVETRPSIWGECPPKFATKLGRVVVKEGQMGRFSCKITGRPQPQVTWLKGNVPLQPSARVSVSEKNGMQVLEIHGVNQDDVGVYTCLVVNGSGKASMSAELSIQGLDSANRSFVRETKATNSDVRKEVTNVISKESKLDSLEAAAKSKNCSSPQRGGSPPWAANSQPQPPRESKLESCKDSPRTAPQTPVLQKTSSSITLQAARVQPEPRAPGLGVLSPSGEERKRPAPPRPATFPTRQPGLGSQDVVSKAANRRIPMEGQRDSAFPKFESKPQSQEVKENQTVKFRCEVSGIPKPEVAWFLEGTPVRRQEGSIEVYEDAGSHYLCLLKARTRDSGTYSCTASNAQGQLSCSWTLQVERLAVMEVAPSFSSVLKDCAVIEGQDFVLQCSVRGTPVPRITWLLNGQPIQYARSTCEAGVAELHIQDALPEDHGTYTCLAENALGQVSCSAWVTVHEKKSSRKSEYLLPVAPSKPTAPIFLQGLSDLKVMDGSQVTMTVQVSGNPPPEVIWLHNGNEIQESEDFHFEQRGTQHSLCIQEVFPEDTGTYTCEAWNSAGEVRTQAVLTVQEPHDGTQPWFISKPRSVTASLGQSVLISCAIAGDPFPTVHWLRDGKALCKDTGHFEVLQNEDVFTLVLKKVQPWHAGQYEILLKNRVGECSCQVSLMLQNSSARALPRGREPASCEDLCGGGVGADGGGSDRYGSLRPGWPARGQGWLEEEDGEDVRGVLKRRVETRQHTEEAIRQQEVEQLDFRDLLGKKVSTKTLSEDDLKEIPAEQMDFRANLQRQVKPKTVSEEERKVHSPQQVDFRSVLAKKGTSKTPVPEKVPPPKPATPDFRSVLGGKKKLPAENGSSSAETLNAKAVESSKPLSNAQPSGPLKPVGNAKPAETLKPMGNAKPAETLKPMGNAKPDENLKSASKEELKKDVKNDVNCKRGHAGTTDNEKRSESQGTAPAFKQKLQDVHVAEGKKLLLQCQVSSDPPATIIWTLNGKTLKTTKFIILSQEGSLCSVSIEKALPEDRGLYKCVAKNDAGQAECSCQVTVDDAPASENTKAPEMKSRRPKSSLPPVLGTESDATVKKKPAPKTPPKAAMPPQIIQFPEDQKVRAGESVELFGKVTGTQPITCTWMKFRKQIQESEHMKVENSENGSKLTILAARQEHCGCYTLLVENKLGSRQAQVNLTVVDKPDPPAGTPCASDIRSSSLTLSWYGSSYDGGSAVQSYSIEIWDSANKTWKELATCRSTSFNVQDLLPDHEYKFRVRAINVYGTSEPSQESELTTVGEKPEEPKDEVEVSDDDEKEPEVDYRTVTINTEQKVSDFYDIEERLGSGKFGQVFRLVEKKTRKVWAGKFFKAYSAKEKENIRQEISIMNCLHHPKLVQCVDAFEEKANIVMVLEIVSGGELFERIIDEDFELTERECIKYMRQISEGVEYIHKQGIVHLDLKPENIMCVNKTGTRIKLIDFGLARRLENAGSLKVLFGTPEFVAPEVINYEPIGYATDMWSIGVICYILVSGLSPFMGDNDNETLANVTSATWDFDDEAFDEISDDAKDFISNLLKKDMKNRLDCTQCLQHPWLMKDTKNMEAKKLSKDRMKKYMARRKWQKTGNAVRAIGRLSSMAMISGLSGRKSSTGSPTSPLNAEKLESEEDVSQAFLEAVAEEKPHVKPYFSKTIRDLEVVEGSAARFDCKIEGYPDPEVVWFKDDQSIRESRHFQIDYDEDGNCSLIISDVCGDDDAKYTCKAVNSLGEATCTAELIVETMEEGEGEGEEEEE
READOUT LABEL: inhibition at 10 µM (%)
Please respond with the number in % and leave the unit unwritten.

Could you tell me which inhibition at 10 µM is on file for "COCCN1CCC(CNC(=O)c2n[nH]c3ccc(OC)cc23)CC1" ?
8

What about this compound? "O=C(O)CN1CCC(CNC(=O)c2n[nH]c3ccc(-c4cccc(F)c4F)cc23)CC1"
17

What about this compound? "CCc1ccc2[nH]nc(C(=O)NCC3CCN(CC(=O)O)CC3)c2c1"
1

What about this compound? "COc1ccc2[nH]nc(C(=O)NCC3CCN(CC(=O)O)CC3)c2c1"
0

---

molecular target: human GSK-3β (Homo sapiens (Human), UniProt P49841); test: Activity on human GSK-3β, LANCE substrate phosphorylation assay; format: biochemical; settings: compounds 1 to 15, LANCE assay, five concentrations 100 μM to 10 nM
Sequence (P49841 whole entry): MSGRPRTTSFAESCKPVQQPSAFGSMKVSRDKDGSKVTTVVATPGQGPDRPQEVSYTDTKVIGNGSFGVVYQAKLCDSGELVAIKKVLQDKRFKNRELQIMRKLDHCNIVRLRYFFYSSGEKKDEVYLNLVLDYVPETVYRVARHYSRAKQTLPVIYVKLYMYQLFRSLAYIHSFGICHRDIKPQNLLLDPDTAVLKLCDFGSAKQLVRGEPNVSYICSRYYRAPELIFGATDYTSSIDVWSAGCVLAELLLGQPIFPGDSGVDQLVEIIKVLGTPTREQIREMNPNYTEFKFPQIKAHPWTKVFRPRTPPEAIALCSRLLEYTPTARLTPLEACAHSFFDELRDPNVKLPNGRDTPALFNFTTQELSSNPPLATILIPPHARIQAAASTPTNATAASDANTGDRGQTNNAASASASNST
What pIC50 was measured for each of the following?
The meaning of pIC50 here: minus log10 of the concentration in molar units.

Could you tell me which pIC50 is on file for COCCN1CCC(CNC(=O)c2n[nH]c3ccc(-c4cncc(OC)c4)cc23)CC1 [Compound 10] ?
7.52

What about this compound? COCCN1CCC(CNC(=O)c2n[nH]c3ccc(-c4cccnc4)cc23)CC1 [Compound 4]
7.52

What about this compound? COCCN1CCC(CNC(=O)c2n[nH]c3ccc(-c4ccc(OC)cc4)cc23)CC1 [Compound 12]
6.25

What about this compound? COCCN1CCC(CNC(=O)c2n[nH]c3ccc(-c4ccc(C)nc4)cc23)CC1 [Compound 7]
7.22

All values here come from patent US9611249B2.
